src = ChEMBL document CHEMBL5335778

testTarget: Human immunodeficiency virus type 1 protease (Human immunodeficiency virus 1)
protocolDetails: Inhibition of HIV-1 protease
assayEndpoint: IC50 (nM)
Please state the figure in nM; there is no need to write the unit.

[N-]=[N+]=N[C@]1(CO)O[C@@H](n2ccc(N)nc2=O)[C@H](O)[C@@H]1O	1280

# next compound below
What IC50 value was documented for this compound, [N-]=[N+]=N[C@]1(CO)O[C@@H](n2ccc(N)nc2=O)[C@@H](O)[C@@H]1O ?
171

----------
Test system: SARS-CoV-2
protocolDetails: Antiviral activity against SARS-COV-2 infected in African green monkey Vero E6 cells assessed as reduction in viral growth
Assay type: functional, organism-based
testConditions: Severe acute respiratory syndrome coronavirus 2, Vero C1008
assayEndpoint: EC50 (nM)
Please state the figure in nM; there is no need to write the unit.

What EC50 value was documented for this compound, CC[C@H](C)[C@@H](C(=O)O[C@@H](CC(C)C)C(=O)N[C@@H](CC(C)C)C(=O)N[C@@H](C)/C=C/C(=O)N1C(=O)C=C(OC)[C@@H]1C)N(C)C [GALLINAMIDE A] ?
28

----------
System: SARS-CoV-2
protocolDetails: Antiviral activity against SARS-CoV-2 infected in African green monkey Vero E6 cells expressing TMPRSS2 assessed as reduction in virus-induced cytopathic effect measured after 48 hrs by cellular ATP assay
Assay type: functional, organism-based
testConditions: Severe acute respiratory syndrome coronavirus 2, Vero C1008, 48 h
assayEndpoint: pEC50
Interpret pEC50 as the negative base-10 log of the concentration measured in mol/L.

What pEC50 value was documented for this molecule, Cn1cnc(Cn2c(=O)[nH]/c(=N\c3cc4cn(C)nc4cc3Cl)n(Cc3cc(F)c(F)cc3F)c2=O)n1 ?
6.46

----------
System: SARS-CoV-2
protocolDetails: Antiviral activity against SARS-CoV-2 infected in human A549-ACE2 cells
Format: functional, organism-based
testConditions: Severe acute respiratory syndrome coronavirus 2, A549-ACE2
assayEndpoint: IC50 (µM)
Please state the figure in µM; there is no need to write the unit.

What IC50 value was documented for this compound, COc1ccc2cc1Oc1ccc(cc1)C[C@H]1c3c(cc4c(c3Oc3cc5c(cc3OC)CCN(C)[C@@H]5C2)OCO4)CCN1C ?
0.24

----------
protocolDetails: Oral bioavailability in monkey at 3 mg/kg, HPLC analysis
Type: ADME, organism-based, Macaca mulatta
testConditions: rhesus monkey, in vivo
assayEndpoint: bioavailability

What bioavailability value was documented for this molecule, N#C[C@@]1(c2ccc3c(N)ncnn23)O[C@H](CO)[C@@H](O)[C@H]1O [GS-441524] ?
< 8%

----------
Test system: SARS-CoV-2
protocolDetails: Antiviral activity against SARS-CoV-2 B.1 infected in Green monkey VeroE6/TMPRSS2 cells assessed as inhibition of viral replication incubated for 2 days by qRT-PCR analysis
Type: functional, organism-based
testConditions: Severe acute respiratory syndrome coronavirus 2, B.1, VeroE6/TMPRSS2, 48 h
assayEndpoint: pIC50
Interpret pIC50 as the negative base-10 log of the concentration measured in mol/L.

What pIC50 value was documented for this molecule, COc1ccc2cc1Oc1ccc(cc1)C[C@H]1c3c(cc4c(c3Oc3cc5c(cc3OC)CCN(C)[C@@H]5C2)OCO4)CCN1C [CEPHARANTHINE] ?
5.72

----------
protocolDetails: Oral bioavailability in Beagle dog at 3 mg/kg
Assay type: ADME, organism-based, Canis lupus familiaris
testConditions: in vivo
assayEndpoint: bioavailability (%)
Please state the figure in %; there is no need to write the unit.

What bioavailability value was documented for this molecule, Br.[2H]c1cc([C@]2(C#N)O[C@H](COC(=O)C(C)C)[C@@H](OC(=O)C(C)C)[C@H]2OC(=O)C(C)C)n2ncnc(N)c12 [DEUREMIDEVIR HYDROBROMIDE] ?
80

----------
Test system: Middle East respiratory syndrome-related coronavirus
protocolDetails: Antiviral activity against MERS-CoV infected in HAE cells
Type: functional, organism-based
assayEndpoint: EC50 (nM)
Please state the figure in nM; there is no need to write the unit.

What EC50 value was documented for this molecule, CCC(CC)COC(=O)[C@H](C)N[P@](=O)(OC[C@H]1O[C@@](C#N)(c2ccc3c(N)ncnn23)[C@H](O)[C@@H]1O)Oc1ccccc1 ?
25

----------
Recorded pEC50 values for a group of compounds are listed next.
Test system: Respiratory syncytial virus
protocolDetails: Antiviral activity against Respiratory syncytial virus
Type: functional, organism-based
testConditions: human respiratory syncytial virus
Interpret pEC50 as the negative base-10 log of the concentration measured in mol/L.

CCC(CC)COC(=O)[C@H](C)N[P@](=O)(OC[C@H]1O[C@@](C#N)(c2ccc3c(N)ncnn23)[C@H](O)[C@@H]1O)Oc1ccccc1	7.68

What pEC50 value was documented for this compound, N#C[C@@]1(c2ccc3c(N)ncnn23)O[C@H](COP(=O)(O)OP(=O)(O)OP(=O)(O)O)[C@@H](O)[C@H]1O ?
7.89

----------
protocolDetails: Oral bioavailability in rat at 2 mg/kg by LC-MS/MS analysis
Type: ADME, organism-based
testConditions: in vivo
assayEndpoint: bioavailability (%)
Please state the figure in %; there is no need to write the unit.

What bioavailability value was documented for this compound, N#C[C@@]1(c2ccc3c(N)ncnn23)O[C@H](CO)[C@@H](O)[C@H]1O ?
50

----------
Tested on: Hepatitis C virus
protocolDetails: Antiviral activity against HCV infected in human Huh-7.5.1 cells assessed as reduction in viral infection incubated for 48 hrs by MTS assay
Format: functional, organism-based, Hepacivirus hominis
testConditions: Huh-7.5.1, 48 h
assayEndpoint: IC50 (µM)
Please state the figure in µM; there is no need to write the unit.

What IC50 value was documented for this compound, COc1ccc2cc1Oc1ccc(cc1)C[C@H]1c3c(cc4c(c3Oc3cc5c(cc3OC)CCN(C)[C@@H]5C2)OCO4)CCN1C ?
0.06

----------
Tested on: SARS-CoV-2
protocolDetails: Antiviral activity against SARS-Co-V-2 infected in Vero E6 cells assessed as reduction in viral replication
Type: functional, organism-based
testConditions: Severe acute respiratory syndrome coronavirus 2, Vero C1008
assayEndpoint: pEC50
Interpret pEC50 as the negative base-10 log of the concentration measured in mol/L.

What pEC50 value was documented for this molecule, COc1ccc2cc1Oc1ccc(cc1)C[C@H]1c3c(cc4c(c3Oc3cc5c(cc3OC)CCN(C)[C@@H]5C2)OCO4)CCN1C ?
6.01

----------
Test system: Human coronavirus OC43
protocolDetails: Antiviral activity against HCoV-OC43
Type: functional, organism-based
testConditions: Betacoronavirus 1
assayEndpoint: pEC50
Interpret pEC50 as the negative base-10 log of the concentration measured in mol/L.

What pEC50 value was documented for this compound, [N-]=[N+]=N[C@]1(COP(=O)(O)OP(=O)(O)OP(=O)(O)O)O[C@@H](n2ccc(N)nc2=O)[C@@H](F)[C@@H]1O ?
5.37

----------
Tested on: SARS-CoV
protocolDetails: Antiviral activity against SARS-CoV infected in Vero E6 cells assessed as reduction in viral replication measured after 48 hrs by qRT-PCR assay
Format: functional, organism-based
testConditions: Severe acute respiratory syndrome-related coronavirus, Vero C1008, 48 h
assayEndpoint: EC50 (nM)
Please state the figure in nM; there is no need to write the unit.

What EC50 value was documented for this molecule, CCC(CC)COC(=O)[C@H](C)N[P@](=O)(OC[C@H]1O[C@@](C#N)(c2ccc3c(N)ncnn23)[C@H](O)[C@@H]1O)Oc1ccccc1 ?
69

----------
protocolDetails: in vitro
testConditions: monkey, Vero E6 cells
assayEndpoint: selectivity ratio

What selectivity ratio value was documented for this compound, CCC(CC)COC(=O)[C@H](C)N[P@](=O)(OC[C@H]1O[C@@](C#N)(c2ccc3c(N)ncnn23)[C@H](O)[C@@H]1O)Oc1ccccc1 ?
> 100

----------
testTarget: Hepatitis C virus NS5B RNA-dependent RNA polymerase (Hepatitis C virus)
Sequence (Q8JXU8 whole entry): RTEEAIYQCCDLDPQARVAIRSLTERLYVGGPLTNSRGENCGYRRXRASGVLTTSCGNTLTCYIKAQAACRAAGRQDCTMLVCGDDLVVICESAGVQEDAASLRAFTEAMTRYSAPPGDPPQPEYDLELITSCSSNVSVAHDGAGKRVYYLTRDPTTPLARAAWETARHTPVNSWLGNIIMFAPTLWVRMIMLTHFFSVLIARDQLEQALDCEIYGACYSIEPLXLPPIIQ
assayEndpoint: pIC50
Interpret pIC50 as the negative base-10 log of the concentration measured in mol/L.

What pIC50 value was documented for this compound, [N-]=[N+]=N[C@]1(CO)O[C@@H](n2ccc(N)nc2=O)[C@@H](O)[C@@H]1O ?
5.89

----------
protocolDetails: Plasma protein binding in rat assessed as free fraction by equilibrium dialysis analysis
Type: ADME, cell-free
assayEndpoint: fraction unbound
Answer with a bare number; do not write a unit.

What fraction unbound value was documented for this compound, N#C[C@@]1(c2ccc3c(N)ncnn23)O[C@H](CO)[C@@H](O)[C@H]1O ?
0.62

----------
protocolDetails: Cytotoxicity against human MT4 cells assessed as reduction in cell viability treated for 5 days by MTT assay
Format: toxicity, cell-based
testConditions: time 5 day
Recorded CC50 at 120 h values for a group of compounds are listed next.

Example compounds with recorded CC50 at 120 h:
N#C[C@@]1(c2ccc3c(N)ncnn23)O[C@H](CO)[C@@H](O)[C@H]1O [GS-441524]	> 500 µM
[2H]c1cc([C@]2(C#N)O[C@H](CO)[C@@H](O)[C@H]2O)n2ncnc(N)c12	> 500 µM

# next compound below
What CC50 at 120 h value was documented for this compound, [2H]c1cc([C@]2(C#N)O[C@H](COC(=O)C(C)C)[C@@H](OC(=O)C(C)C)[C@H]2OC(=O)C(C)C)n2ncnc(N)c12 ?
280 µM
